# credit: patent US20260001886A1

study.system: human CA-II (CA2) (Homo sapiens (Human), UniProt P00918)
assay.method.text: Surface plasmon resonance, carbonic anhydrase II
condition.info: 25° C., CM5 chip
value.kind: CA2 human SPR pKD

* Cc1nc2n(C[C@H]3C[C@H]4C[C@@H]3CN4S(N)(=O)=O)cc(-c3cccc(F)c3)c(=O)n2n1 | 3.6
* CC(C)c1cn(Cc2ccc(S(C)(=N)=O)cc2)c2cc(C3CC3)nn2c1=O (stereo not shown) | 3.0

[A] COc1cccc2c1nn1c(=O)c(C(C)C)cn(C[C@H]3C[C@H]4C[C@@H]3CN4S(N)(=O)=O)c21
[B] CC(C)c1cn(Cc2ccc(S(C)(=N)=O)cc2F)c2cc(C3CC3)nn2c1=O (stereo not shown)
Which numeric CA2 human SPR pKD is bigger, that of A or that of B ? Indicate your choice by writing its label.
A
(A: 4.5, B: 3.0)

----------
study.system: human CA-II (CA2) (Homo sapiens (Human), UniProt P00918)
assay.method.text: Surface plasmon resonance, carbonic anhydrase II
condition.info: 25° C., CM5 chip
value.kind: CA2 human SPR pKD

Examples from the recorded data:
- CC(C)c1cn(Cc2ccc(S(C)(=N)=O)cc2F)c2nc(C3CC3)nn2c1=O (centres unmarked) [Compound 12]: 3.0
- COc1c(C2CC2)nn2c(=O)c(C(C)C)cn(C[C@H]3C[C@H]4C[C@@H]3CN4S(N)(=O)=O)c12 [Compound 44]: 4.2

[I] Cc1nn2c(=O)c(C(C)C)cn(C[C@H]3C[C@H]4C[C@@H]3CN4S(N)(=O)=O)c2c1Cl [Compound 4]
[II] CC(C)c1cn(Cc2ccc(S(N)(=O)=O)c(-c3ccccc3)n2)c2nc(C3CC3)nn2c1=O [Compound 27]
Which numeric CA2 human SPR pKD is bigger, that of I or that of II ? Indicate your choice by writing its label.
I
(I: 4.9, II: 3.0)

----------
Entries below carry reported EC50 on Human ENPP1 (Homo sapiens (Human), UniProt P22413).
Sequence (P22413 whole entry): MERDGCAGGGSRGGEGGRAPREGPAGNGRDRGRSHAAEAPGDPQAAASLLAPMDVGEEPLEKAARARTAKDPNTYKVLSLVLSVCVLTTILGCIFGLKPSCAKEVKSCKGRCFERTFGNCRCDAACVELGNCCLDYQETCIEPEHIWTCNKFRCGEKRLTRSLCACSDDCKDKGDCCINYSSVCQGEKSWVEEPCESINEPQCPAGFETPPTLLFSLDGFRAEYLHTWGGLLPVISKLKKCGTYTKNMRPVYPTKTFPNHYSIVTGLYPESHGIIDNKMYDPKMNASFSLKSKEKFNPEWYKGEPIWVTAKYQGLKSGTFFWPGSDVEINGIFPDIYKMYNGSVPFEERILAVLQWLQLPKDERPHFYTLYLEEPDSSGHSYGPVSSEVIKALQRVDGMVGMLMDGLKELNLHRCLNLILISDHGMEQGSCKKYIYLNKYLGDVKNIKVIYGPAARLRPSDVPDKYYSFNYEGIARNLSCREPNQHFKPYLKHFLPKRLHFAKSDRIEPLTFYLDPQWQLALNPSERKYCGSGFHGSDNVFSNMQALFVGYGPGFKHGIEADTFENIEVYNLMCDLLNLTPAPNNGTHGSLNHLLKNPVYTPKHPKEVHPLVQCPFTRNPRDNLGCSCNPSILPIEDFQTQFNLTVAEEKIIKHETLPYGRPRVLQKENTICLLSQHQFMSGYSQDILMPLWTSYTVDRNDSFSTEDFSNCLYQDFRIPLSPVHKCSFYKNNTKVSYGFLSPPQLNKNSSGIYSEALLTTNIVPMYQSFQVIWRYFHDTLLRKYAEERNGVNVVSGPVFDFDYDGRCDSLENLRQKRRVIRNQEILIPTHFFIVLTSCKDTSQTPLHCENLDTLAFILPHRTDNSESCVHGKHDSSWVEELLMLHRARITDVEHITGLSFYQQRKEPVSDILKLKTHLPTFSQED
value.kind: EC50 (nM)

- COCc1nc2n(Cc3ccc(S(C)(=N)=O)cc3)cc(C(C)C)c(=O)n2n1 (stereo not shown) [Compound 33]: 7.94
- CC(C)c1cn(Cc2c(F)cc(S(C)(=N)=O)cc2F)c2nc(C3CC3)nn2c1=O (stereo not shown) [Compound 26]: 12.6

[A] Cc1cc(S(C)(=N)=O)ccc1Cn1cc(C(C)C)c(=O)n2nc(C3CC3)cc12 (stereo not shown) [Compound 61]
[B] CC(C)c1cn(Cc2ccc3c(c2)OCCS3(=N)=O)c2nc(C3CC3)nn2c1=O (stereo not shown) [Compound 53]
Given the two records A and B , choose the one whose EC50 value is lower. Indicate your choice by writing its label.
A
(A: 3.98 nM, B: 100 nM)

----------
Entries below carry reported Kd on human CA-II (CA2) (Homo sapiens (Human), UniProt P00918).

* CC(C)c1cn(Cc2ccc(S(C)(=N)=O)cc2)c2cc(C3CC3)nn2c1=O (racemic) [3 Rac] | > 100 mM
* CNc1nc(S(N)(=O)=O)ccc1Cn1cc(C(C)C)c(=O)n2nc(C3CC3)nc12 [Compound 29] | 0.0316 mM

Attention now shifts to the item below.
Hello, I am looking for reported Kd with human CA-II (CA2) (Homo sapiens (Human), UniProt P00918) for CCc1nc2n(Cc3ccc([S@@](C)(=N)=O)cc3)cc(C(C)C)c(=O)n2n1 (single isomer, unassigned) [Compound 31A] . Could you help?
> 100 mM
